# maps each entry to its IC50
Molecular target: SPM-1 (Pseudomonas aeruginosa, UniProt Q8G9Q0)
Sequence (Q8G9Q0 entry or part of it): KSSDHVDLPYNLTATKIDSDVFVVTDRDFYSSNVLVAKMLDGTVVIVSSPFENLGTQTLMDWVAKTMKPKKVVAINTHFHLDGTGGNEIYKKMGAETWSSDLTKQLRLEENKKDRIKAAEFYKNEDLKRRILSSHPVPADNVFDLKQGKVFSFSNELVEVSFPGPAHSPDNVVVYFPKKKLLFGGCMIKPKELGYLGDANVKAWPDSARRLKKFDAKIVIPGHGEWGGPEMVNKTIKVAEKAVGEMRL
Test: SPM-1 inhibition, fluorogenic cephalosporin (FC5) hydrolysis
Assay type: biochemical
Conditions: enethiols 6 assayed as sodium salts; 10 min incubation; read-out: IC50 SPM-1 (converted)
PARAMETER_MEASURED: IC50 (nM)

- O=C(O)/C(S)=C/c1ccccc1Cc1ccc2ccccc2c1: 60
- O=C(O)CN1C(=O)/C(=C/c2c(Cl)cccc2Cl)SC1=S: 3500
- O=C(O)CN1C(=O)/C(=C/c2c(F)cccc2F)SC1=S: 32100
- O=C(O)/C(S)=C/c1ccccc1: 300
- O=C(O)/C(S)=C/c1cc(Cl)ccc1Cl: 800
- CN1CCN(NC(=O)CN2C(=O)S/C(=C\c3c(Cl)ccc(Cl)c3Cl)C2=O)CC1: 500
- CN1CCN(NC(=O)CN2C(=O)/C(=C/c3c(Cl)cccc3Cl)SC2=S)CC1: 200
